src = patent US9730906B2

Would you mind telling me the reported IC50 of each entry?
test system: A549 cells; assay: Growth/viability of A549 lung cancer cells in culture (cell count); assay type: cell-based, human; settings: concentration that reduces the number of cells to half
Numbers only, in µM.

* CCCCCCCC/C=C\CCCCCCC(C(C)=O)C(=O)O (stereo not drawn) [ACOD, α-Acetyl-cis-Δ9-octadecenoic] | 153
* CCCCCCCC/C=C\CCCCCCC(O)C(=O)[O-].[Na+] (stereo not shown) | 47
* CCCCCCCC/C=C\CCCCCCC(OC(C)=O)C(=O)OCC (stereo not shown) | 185

Would you mind listing IC50 for each of the following compounds?
1. CCCCCCCCC=CCCCCCCC(O)C(=O)OCC (stereo not shown)
2. CCCCCCCC/C=C\CCCCCCC(O)C(=O)O (stereo not drawn) [OHOD, α-Hydroxy-cis-Δ9-octadecenoic]
3. CCCCCCCC/C=C\CCCCCCC(O)C(=O)O.N (stereo not shown)
4. CCCCCCCC/C=C\CCCCCCC(OC)C(=O)OC (stereo not shown)
5. CCCCCCCC/C=C\CCCCCCC(OC)C(=O)OCC (stereo not shown)
6. CCCCCCCC/C=C\CCCCCCC(OP(=O)(OCC)OCC)C(=O)[O-].[Na+] (stereo not shown)

stdout:
1: 79; 2: 62; 3: 81; 4: 149; 5: 168; 6: 32

stdin: Give IC50 for CCCCCCCC/C=C\CCCCCCC(OP(=O)(OCC)OCC)C(=O)OC (stereo not shown)
stdout: 66
